target: T1, fibronectin extra domain B (ED-B) (UniProt P02751 1266-1356, biotinylated (biotin ED-B), site not stated); assay: SPR (BIAcore X), biotin-EDB on streptavidin SA chip, synthetic peptide as analyte; peptide 1
T1 construct: domain: ED-B; Biotin-EDB captured on a streptavidin SA chip (2,000 RU) for SPR and on streptavidin-coated wells for ELISA; also called biotin ED-B; biotin-EDB
T1 sequence (P02751 1266-1356 limits assumed): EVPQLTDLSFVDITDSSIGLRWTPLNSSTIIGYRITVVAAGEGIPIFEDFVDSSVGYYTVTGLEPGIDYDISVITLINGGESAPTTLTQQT
measured property: Kd
Just the number plus its unit, please.

Data request: Give the reported value of Kd for this record: WGGPVRGSWTWENGKWTWKGIIRLEQ (Synthetic in SPR; on phage in the colony ELISA; also called BPB2 peptide 1) [peptide 1 (WGGPVRGSWTWENGKWTWKGIIRLEQ)]
Data returned: 115 nM
